// data source = paper PMC3187937

- experimental-target: wild-type cyt bc1 (Rhodobacter capsulatus)
- Sequence (D5ANZ3 whole entry): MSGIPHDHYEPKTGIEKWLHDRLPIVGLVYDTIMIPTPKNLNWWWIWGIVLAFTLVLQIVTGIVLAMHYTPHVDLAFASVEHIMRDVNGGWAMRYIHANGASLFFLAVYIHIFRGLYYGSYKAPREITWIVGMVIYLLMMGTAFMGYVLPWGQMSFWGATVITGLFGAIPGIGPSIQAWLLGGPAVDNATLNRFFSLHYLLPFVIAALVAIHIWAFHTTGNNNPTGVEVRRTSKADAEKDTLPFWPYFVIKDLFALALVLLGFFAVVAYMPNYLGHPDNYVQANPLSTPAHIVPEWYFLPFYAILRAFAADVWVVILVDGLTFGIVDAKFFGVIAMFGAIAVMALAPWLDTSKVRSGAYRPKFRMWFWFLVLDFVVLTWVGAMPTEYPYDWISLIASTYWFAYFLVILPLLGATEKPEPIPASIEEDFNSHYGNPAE
- Sequence (D5ANZ2 whole entry partner): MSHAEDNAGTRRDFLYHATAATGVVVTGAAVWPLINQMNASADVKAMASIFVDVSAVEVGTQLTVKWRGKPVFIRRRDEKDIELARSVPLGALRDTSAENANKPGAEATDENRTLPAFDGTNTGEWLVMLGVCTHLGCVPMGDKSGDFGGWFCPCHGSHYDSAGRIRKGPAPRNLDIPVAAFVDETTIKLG
- Sequence (D5ANZ4 22-279 partner): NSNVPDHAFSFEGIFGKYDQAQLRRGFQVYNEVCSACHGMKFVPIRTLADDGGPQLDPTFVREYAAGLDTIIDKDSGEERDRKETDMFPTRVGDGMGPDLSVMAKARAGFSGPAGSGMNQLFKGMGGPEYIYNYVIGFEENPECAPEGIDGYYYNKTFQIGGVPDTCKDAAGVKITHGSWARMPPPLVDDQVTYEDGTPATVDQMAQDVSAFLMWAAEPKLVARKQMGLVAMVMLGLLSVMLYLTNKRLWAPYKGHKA
- procedure-summary: Isothermal titration calorimetry of Zn^2+ binding, wild-type enzyme
- measurement-parameters: read-out: KD1 (high affinity site), two-site model
value-kind: Kd
State the result as a value with its unit after it.

Documented Kd of [Zn+2] : 500 nM

* * *

- experimental-target: E295V mutant cyt bc1 (Rhodobacter capsulatus, UniProt D5ANZ3, E295V)
- Sequence (D5ANZ3 whole entry E295V): as the sequence (D5ANZ3 whole entry) above, with E295V counted along it
- Sequence (D5ANZ2 whole entry, further chain): as the sequence (D5ANZ2 whole entry partner) above
- Sequence (D5ANZ4 22-279, further chain): as the sequence (D5ANZ4 22-279 partner) above
- Format: binding
- measurement-parameters: read-out: KD2 (low affinity sites); E295V; n1 = 1 fixed
value-kind: Kd (µM)
Output spec: scalar in µM, unitless text.

Documented Kd of [Zn+2] : 3.5

* * *

- experimental-target: E295V mutant cyt bc1 (Rhodobacter capsulatus, UniProt D5ANZ3, E295V)
- Type: binding
- measurement-parameters: read-out: KD2; E295V; blind fit, two-site model
value-kind: pKd
Recall that pKd is obtained by taking minus log10 of the concentration measured in molar.

pKd of [Zn+2] [Zn^2+] , assay on E295V mutant cyt bc1 (Rhodobacter capsulatus, UniProt D5ANZ3, E295V), is 5.24

* * *

- experimental-target: wild-type cyt bc1 (Rhodobacter capsulatus)
- procedure-summary: Isothermal titration calorimetry of Zn^2+ binding, wild-type enzyme
- measurement-parameters: read-out: KD (lower affinity sites), two-site model
value-kind: pKd
Recall that pKd is obtained by taking minus log10 of the concentration measured in molar.

Documented pKd of [Zn+2] : 5.17
